For each record, write down the corresponding log10 IC50.
target: Inhibitor of nuclear factor kappa-B kinase subunit beta (Homo sapiens); experiment: Inhibition of IKK2
Sequence (O14920 whole entry): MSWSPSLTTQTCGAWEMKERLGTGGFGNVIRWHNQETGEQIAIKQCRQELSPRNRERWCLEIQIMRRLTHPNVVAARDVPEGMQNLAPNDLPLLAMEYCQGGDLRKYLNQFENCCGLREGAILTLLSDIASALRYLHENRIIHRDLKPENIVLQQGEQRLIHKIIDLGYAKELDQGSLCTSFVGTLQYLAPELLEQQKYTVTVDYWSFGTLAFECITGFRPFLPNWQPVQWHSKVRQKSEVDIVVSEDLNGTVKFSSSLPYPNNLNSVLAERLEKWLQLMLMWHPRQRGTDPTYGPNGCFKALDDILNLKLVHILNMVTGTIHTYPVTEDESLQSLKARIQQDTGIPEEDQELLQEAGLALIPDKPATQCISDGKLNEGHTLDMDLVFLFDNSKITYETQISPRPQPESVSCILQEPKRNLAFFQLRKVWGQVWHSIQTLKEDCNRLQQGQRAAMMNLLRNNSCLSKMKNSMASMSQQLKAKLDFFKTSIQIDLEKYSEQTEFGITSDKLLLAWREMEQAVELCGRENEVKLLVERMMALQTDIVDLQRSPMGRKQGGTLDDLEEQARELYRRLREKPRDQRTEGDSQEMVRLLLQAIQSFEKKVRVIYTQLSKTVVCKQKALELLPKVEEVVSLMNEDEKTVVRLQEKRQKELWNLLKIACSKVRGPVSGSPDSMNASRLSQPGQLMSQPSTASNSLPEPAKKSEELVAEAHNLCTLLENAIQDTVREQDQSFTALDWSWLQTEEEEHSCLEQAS
Use the decimal logarithm of IC50 (µM).

Qu. Need log10 IC50, item O=S(=O)(c1ccc(-c2ccnc(Nc3ccc4ncsc4c3)n2)cc1)N1CCCCC1
Ans. -0.22

Qu. Looking for the measured log10 IC50 of O=S(=O)(c1ccc(-c2ccnc(Nc3ccc4ncsc4c3)n2)cc1)N1CCSCC1 , can you help?
Ans. -0.60

Qu. So what's the measured log10 IC50 for this one? O=C(Nc1ccc(-c2ccnc(Nc3ccc4ncsc4c3)n2)cc1)C1CCNCC1
Ans. -0.40

Qu. Which log10 IC50 reading was recorded for the compound NCCC(=O)Nc1ccc(-c2ccnc(Nc3ccc4ncsc4c3)n2)cc1 ?
Ans. -0.57

Qu. Entry c1ccc(Oc2ccc(-c3ccnc(Nc4ccc5ncsc5c4)n3)cc2)cc1 : reported log10 IC50 = ?
Ans. 0.82

Qu. Would you kindly share the measured log10 IC50 for O=C(Nc1ccc(-c2ccnc(Nc3ccc4ncsc4c3)n2)cc1)C1CCCN1 (stereo not given) ?
Ans. -0.89

Qu. Query (compound): O=S(=O)(Nc1ccc(-c2ccnc(Nc3ccc4ncsc4c3)n2)cc1)c1cc(Cl)c(Cl)s1 ; field requested: log10 IC50
Ans. 0.95

Qu. Recorded log10 IC50 for Cc1ccc(S(=O)(=O)Nc2ccc(-c3ccnc(Nc4ccc5ncsc5c4)n3)cc2)cc1 , please?
Ans. 0.18

Qu. Bench note: what log10 IC50 did O=S(=O)(c1ccc(-c2ccnc(Nc3ccc4ncsc4c3)n2)cc1)N1CCCC1 show?
Ans. -0.27

Qu. Query: log10 IC50; subject: O=S(=O)(c1ccc(-c2ccnc(Nc3ccc4ncsc4c3)n2)cc1)N1CCOCC1
Ans. -0.42
